Measured electrical conductivity, listed per entry for reference.
EXPERIMENT_SUMMARY: xn = mol fraction of the nth substance listed
SETTINGS: 313.15 K; 101 kPa; x1 = 5.95e-06; x2 = 0
Provide only the numeric value, understood in S/m.

Examples from the recorded data:
* CCCCCCCCCCCCCCCC[n+]1ccccc1.O=C([O-])C(O)c1ccccc1 + NCC(=O)NCC(=O)O + O | 0.0042
* CCCCCCCCCCCCCCCC[n+]1ccccc1.O=C([O-])C(O)c1ccccc1 + NCC(=O)O + O | 0.0042
* CCCCCCCCCCCCCCCC[n+]1ccccc1.O=C([O-])C(O)c1ccccc1 + C[C@H](N)C(=O)O + O | 0.0042
* CCCCCCCCCCCCCCCC[n+]1ccccc1.O=C([O-])C(O)c1ccccc1 + CC(C)C[C@H](N)C(=O)O + O | 0.0042

Which electrical conductivity is listed for CCCCCCCCCCCCCCCC[n+]1ccccc1.O=C([O-])C(O)c1ccccc1 + CC(C)[C@H](N)C(=O)O + O ?
0.0042
